Reference for the values: patent US6512097

# study_target: T1, c-erbB-2 ECD with a Ser-Gly-His6 C-terminal fusion (UniProt P04626 23-652)
# T1 construct: extracellular domain; Expressed from CHO cells, IMAC purified; coupled to a CM5 chip, coated on plates, or biotinylated with NHS-LC-biotin; also called c-erbB-2 extracellular domain; biotinylated c-erbB-2 ECD
# assay_info: competition ELISA, sFv preincubated with soluble c-erbB-2 (0 to 100 nM)
# IC50 listing for each entry below

{"binder": "C6VLD (scFv, Radioiodinated for the Scatchard assay; the label is not carried in the letters., Light chain shuffled; mixture of monomer and dimer by gel filtration) scFv: QVQLLQSGAELKKPGESLKISCKGSGYSFTSYWIAWVRQMPGKGLEYMGLIYPGDSDTKYSPSFQGQVTISVDKSVSTAYLQWSSLKPSDSAVYFCARHDVGYCSSSNCAKWPEYFQHWGQGTLVTVSSGGGGSGGGGSGGGGSQSVLTQPPSVSAAPGQKVTISCSGTNSNIGNNYVSWYQQLPGTAPKLLIYTNDQRPSGVPDRFSGSKSGTSASLAISGLQSEDEADYYCAAWDDSLNGWMFGGGTKLTVLG", "IC50, nM": 5.8}
{"binder": "C6VLF (scFv, Radioiodinated for the Scatchard assay; the label is not carried in the letters., Light chain shuffled; mixture of monomer and dimer by gel filtration) scFv: QVQLLQSGAELKKPGESLKISCKGSGYSFTSYWIAWVRQMPGKGLEYMGLIYPGDSDTKYSPSFQGQVTISVDKSVSTAYLQWSSLKPSDSAVYFCARHDVGYCSSSNCAKWPEYFQHWGQGTLVTVSSGGGGSGGGGSGGGGSQSVLTQPPSMSAAPGQKVTISCSGSSSNIGNNYVSWYQQFPGTAPKLLIHDNNKRPSGIPDRISGSKSGTSASLAISGLQSDDEADYYCAAWDDSLNGWVFGGGTKLTVLG", "IC50, nM": 7.5}
{"binder": "C6VLB (scFv, Light chain shuffled; mixture of monomer and dimer by gel filtration) scFv: QVQLLQSGAELKKPGESLKISCKGSGYSFTSYWIAWVRQMPGKGLEYMGLIYPGDSDTKYSPSFQGQVTISVDKSVSTAYLQWSSLKPSDSAVYFCARHDVGYCSSSNCAKWPEYFQHWGQGTLVTVSSGGGGSGGGGSGGGGSQSVLTQPPSVSAAPGQKVTISCSGSSSNIGNNYVSWYQQLPGTAPKLLIYSDNQRPSGVPDRFSGSKSGTSASLAISGLRSEDEADYYCAAWDDSLSGHWVFGGGTKLTVLG", "IC50, nM": 10}
{"binder": "C6VLE (scFv, Radioiodinated for the Scatchard assay; the label is not carried in the letters., Light chain shuffled; mixture of monomer and dimer by gel filtration) scFv: QVQLLQSGAELKKPGESLKISCKGSGYSFTSYWIAWVRQMPGKGLEYMGLIYPGDSDTKYSPSFQGQVTISVDKSVSTAYLQWSSLKPSDSAVYFCARHDVGYCSSSNCAKWPEYFQHWGQGTLVTVSSGGGGSGGGGSGGGGSQSVLTQPPSVSAAAGQKVTISCSGSSSSIGRNYVSWNQQLPGTAPKLLIWRNNQRPSGVPDRFSGSKSGTSASLAISGVRSEDEADYYCASWDNSLSGWVFGGGTKLTVLG", "IC50, nM": 2.8}
